- TEST PROTOCOL: Biodistribution of 68Ga-labeled peptide in mice bearing B16F10 mouse melanoma
- Assay type: in vivo, C57BL/6J mice
- TEST PARAMETERS: seminal glands, iv, total radioactivity, 1 h p.i. unblocked, C57BL/6J mice, B16F10 melanoma, read-out: Biodistribution, Seminal glands

{"COMPOUND": "CCCC[C@H](NC(=O)CN1CCC(NC(=O)CN2CCN(CC(=O)O)CCN(CC(=O)O)CCN(CC(=O)O)CC2)CC1)C(=O)N[C@H]1CC(=O)NCCCC[C@@H](C(N)=O)N(C)C(=O)[C@H](Cc2c[nH]c3ccccc23)N(C)C(=O)[C@H](CCCNC(=N)N)N(C)C(=O)[C@@H](Cc2ccccc2)NC(=O)[C@H](Cc2c[nH]cn2)N(C)C1=O [^68Ga-labeled CCZ01099, metal not drawn]", "tissue uptake at 1 h [%ID/g]": 0.11}
